Target: Sphingosine kinase 2 (Homo sapiens, UniProt Q9NRA0)
Sequence (Q9NRA0 whole entry): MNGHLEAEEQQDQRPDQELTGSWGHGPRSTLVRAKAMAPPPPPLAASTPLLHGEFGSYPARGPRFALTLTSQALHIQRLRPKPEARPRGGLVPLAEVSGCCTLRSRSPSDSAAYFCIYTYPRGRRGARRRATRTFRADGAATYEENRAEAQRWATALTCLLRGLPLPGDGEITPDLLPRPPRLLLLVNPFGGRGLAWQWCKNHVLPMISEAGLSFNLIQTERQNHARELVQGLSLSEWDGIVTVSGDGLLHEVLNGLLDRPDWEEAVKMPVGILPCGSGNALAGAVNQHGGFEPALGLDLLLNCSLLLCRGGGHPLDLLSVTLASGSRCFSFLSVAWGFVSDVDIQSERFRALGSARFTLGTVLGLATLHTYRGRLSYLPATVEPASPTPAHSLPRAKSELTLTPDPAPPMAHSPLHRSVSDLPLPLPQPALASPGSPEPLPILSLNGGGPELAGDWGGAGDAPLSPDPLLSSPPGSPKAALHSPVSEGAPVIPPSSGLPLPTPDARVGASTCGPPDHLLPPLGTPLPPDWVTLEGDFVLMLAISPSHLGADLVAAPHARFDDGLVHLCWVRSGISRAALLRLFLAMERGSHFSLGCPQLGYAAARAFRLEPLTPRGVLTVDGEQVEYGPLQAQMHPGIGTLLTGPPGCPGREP
Assay: Inhibition of SK2 (unknown origin)
pKi: −log10 of the molar value.

{"SMILES NOTATION": "Oc1ccc(Nc2nc(-c3ccc(Cl)cc3)cs2)cc1", "pKi": 5.17}

----------
Below: a set of entries, each annotated with reported Ratio IC50.
species on record: Homo sapiens; experiment: Selectivity index, ratio of IC50 for GFP-tagged SK1 (unknown origin) expressed in HEK293 cells to IC50 for purified SK2 (unknown origin)

{"SMILES NOTATION": "OC[C@H]1CCCN1Cc1ccc(COc2cccc(OCc3ccc(Cl)cc3)c2)cc1", "CENSORING OPERATOR": "=", "Ratio IC50": 101}
{"SMILES NOTATION": "OC[C@H]1CCCN1Cc1ccc(COc2cccc(CCc3ccccc3)c2)cc1", "CENSORING OPERATOR": "=", "Ratio IC50": 0.74}
{"SMILES NOTATION": "OC[C@H]1CCCN1Cc1ccc(COc2cccc(OCc3cccc(Cl)c3)c2)cc1", "CENSORING OPERATOR": "=", "Ratio IC50": 0.11}
{"SMILES NOTATION": "O=S(=O)(Cc1cccc(OCc2ccc(CN3CCC[C@@H]3CO)cc2)c1)c1ccccc1", "CENSORING OPERATOR": "<", "Ratio IC50": 0.048}
{"SMILES NOTATION": "N#Cc1ccc(COc2cccc(OCc3ccc(CN4CCC[C@@H]4CO)cc3)c2)cc1", "CENSORING OPERATOR": ">", "Ratio IC50": 2.7}
{"SMILES NOTATION": "COc1ccc(COc2cccc(OCc3ccc(CN4CCC[C@@H]4CO)cc3)c2)cc1", "CENSORING OPERATOR": ">", "Ratio IC50": 25}
{"SMILES NOTATION": "OC[C@H]1CCCN1Cc1ccc(COc2cccc(OCc3ccccc3Cl)c2)cc1", "CENSORING OPERATOR": "=", "Ratio IC50": 0.26}
{"SMILES NOTATION": "OC[C@H]1CCCN1Cc1ccc(COc2cccc(SCc3ccc(Cl)cc3)c2)cc1", "CENSORING OPERATOR": "=", "Ratio IC50": 76}
{"SMILES NOTATION": "OC[C@H]1CCCN1Cc1ccc(COc2cccc(OCc3cccc(F)c3)c2)cc1", "CENSORING OPERATOR": "=", "Ratio IC50": 0.063}
{"SMILES NOTATION": "OC[C@H]1CCCN1Cc1ccc(COc2cccc(OCc3ccccc3)c2)cc1", "CENSORING OPERATOR": "=", "Ratio IC50": 0.88}
